Cited source for all entries: patent US5945509A

study.system: GluR1 (Rattus norvegicus)
Construct: expressed in transfected cells; host or cells: Xenopus oocytes injected with in vitro transcribed pGluR1 sense RNA
Sequence (P19490 19-907): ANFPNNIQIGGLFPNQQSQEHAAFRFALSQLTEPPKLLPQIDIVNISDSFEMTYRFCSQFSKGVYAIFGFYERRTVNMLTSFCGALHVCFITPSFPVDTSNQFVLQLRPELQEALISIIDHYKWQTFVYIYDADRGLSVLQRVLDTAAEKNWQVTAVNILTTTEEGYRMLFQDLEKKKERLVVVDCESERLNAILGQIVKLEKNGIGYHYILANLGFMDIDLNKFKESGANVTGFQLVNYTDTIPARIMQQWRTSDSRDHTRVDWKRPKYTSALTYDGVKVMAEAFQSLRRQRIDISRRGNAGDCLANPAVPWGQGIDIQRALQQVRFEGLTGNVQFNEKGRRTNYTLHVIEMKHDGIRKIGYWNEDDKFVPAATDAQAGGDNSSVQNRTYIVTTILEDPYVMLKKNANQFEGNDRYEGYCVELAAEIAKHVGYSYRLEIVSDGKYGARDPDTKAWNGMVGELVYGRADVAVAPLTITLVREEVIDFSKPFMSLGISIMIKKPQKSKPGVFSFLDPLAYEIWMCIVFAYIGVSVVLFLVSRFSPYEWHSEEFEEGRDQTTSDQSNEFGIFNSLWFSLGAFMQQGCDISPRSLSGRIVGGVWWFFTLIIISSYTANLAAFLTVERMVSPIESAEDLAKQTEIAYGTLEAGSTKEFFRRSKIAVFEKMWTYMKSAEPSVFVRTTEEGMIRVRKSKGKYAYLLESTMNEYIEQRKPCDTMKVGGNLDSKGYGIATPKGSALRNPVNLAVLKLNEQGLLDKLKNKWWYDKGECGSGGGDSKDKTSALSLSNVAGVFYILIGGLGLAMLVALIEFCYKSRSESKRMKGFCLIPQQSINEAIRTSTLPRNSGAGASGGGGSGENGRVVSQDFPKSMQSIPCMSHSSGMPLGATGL
test.protocol: Electrophysiological recording in Xenopus oocytes injected with GluR1 in vitro RNA
Type: cell-based
Entries annotated with measured Compound Alone (%)
The figure you give is taken to be in %; do not add the unit.

Recorded results for 4 compounds are shown here.
O=C(O)C1CN(CCCP(=O)(O)O)CCN1 (centres unmarked) [CPP] : 9.1
O=C(O)c1cc(=O)c2ccccc2[nH]1 [Kynurenic acid] : 3.4
O=C(O)[C@H]1CCCN[C@H]1C(=O)O (relative stereo) [PDA, 2,3cis-piperidine dicarboxylic acid] : 2.5
N[C@H](CCC(=O)NCC(=O)O)C(=O)O [γ-DGG, D-glutamylglycine] : -0.1

Shift focus to the following entry.
In: Please give the measured Compound Alone (%) for this compound: CCOC(=O)CC[C@H](N)C(=O)OCC [GDEE, glutamate diethylester]
Out: 24.8
